# Test system: LXFL 529
# Assay: NCI tumour cell line growth inhibition, 48 h
Calls of active or inactive are those of the source. No stated cut-off is given here; in the data, active = GI50 up to about 1.1 µM and inactive = higher.
Listing of entries alongside the reported GI50.

Problem: Name the recorded GI50 for C=C1C2Oc3ccccc3C1N(c1ccccc1)O2 (stereo not given) .
Result: 35.2 µM (inactive)

Problem: Name the recorded GI50 for O=C(O)Cc1cc(=O)[nH]c2c1/C(=N/O)CCC2 .
Result: > 100 µM (inactive)

Problem: Name the recorded GI50 for CC1=C(c2cc(C(=O)Nc3ccc(Cl)cc3)nc(S)n2)Sc2ccccc2N1 .
Result: > 100 µM (inactive)

Problem: Name the recorded GI50 for CC1=C(C(=O)NCc2ccccc2)C(c2ccc(C3C(C(=O)NCc4ccccc4)=C(C)NC(C)=C3C(=O)NCc3ccccc3)cc2)C(C(=O)NCc2ccccc2)=C(C)N1 .
Result: 4.58 µM (inactive)

// switching to the query compound
Problem: Name the recorded GI50 for NC(CCCNc1cccc(O)c1)C(=O)O (stereo not given) .
Result: > 100 µM (inactive)

Where do the numbers come from? From ChEMBL document CHEMBL1201862.
